B1: Hairpin Ribozyme (parent)
chain: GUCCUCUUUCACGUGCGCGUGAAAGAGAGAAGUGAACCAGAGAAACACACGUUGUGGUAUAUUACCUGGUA

Variants of: B1
method.description: self-cleavage, relative activity (ratio to wild type); higher = more cleavage; co-transcriptional
recorded.endpoint: self-cleavage

mutation	recorded.endpoint	assay.result
G54U C65U	self-cleavage	0.171
A22C U53A	self-cleavage	0.81
G17A C18U	self-cleavage	1.12
C16A U70A	self-cleavage	0.83
C18A G68U	self-cleavage	0.239
G13A C48U	self-cleavage	0.22
U5A G27A	self-cleavage	0.179
C10U A35C	self-cleavage	0.871
G21A A31U	self-cleavage	0.0982
A24C A26U	self-cleavage	0.463
U9A U20C	self-cleavage	0.773
G1A A23C	self-cleavage	0.221
C3G U52A	self-cleavage	0.332
G51C A61G	self-cleavage	0.138
G1C U63A	self-cleavage	0.194
A23U C50U	self-cleavage	0.376
G29C C50G	self-cleavage	0.0763
A30U A36U	self-cleavage	0.0371
A47G G51C	self-cleavage	0.221
C12U A39C	self-cleavage	0.407
A59G	self-cleavage	0.17
C4A C46A	self-cleavage	0.146
U8G G69C	self-cleavage	0.323
A41G A59U	self-cleavage	0.138
G21C A30G	self-cleavage	0.22
A24U A44C	self-cleavage	0.252
A44C A49C	self-cleavage	0.103
G13U C18G	self-cleavage	0.722
A11G C66G	self-cleavage	0.173
C37G C50A	self-cleavage	0.14
G15U U33C	self-cleavage	0.178
C12A G57A	self-cleavage	0.255
U9G A28G	self-cleavage	1.01
C50G G68C	self-cleavage	0.0881
U9C G34A	self-cleavage	0.812
A43G C66U	self-cleavage	0.139
A11C A43G	self-cleavage	0.0792
G32C U33G	self-cleavage	0.12
U33A U52G	self-cleavage	0.111
A36G	self-cleavage	1.03
G27C A47U	self-cleavage	0.0683
G27U U58G	self-cleavage	0.225
A39G G51U	self-cleavage	0.36
G56U G69C	self-cleavage	0.124
C4U U52G	self-cleavage	0.209
A23C A43C	self-cleavage	0.146
G1A U8A	self-cleavage	0.232
G25U A39G	self-cleavage	0.191
G68A U70G	self-cleavage	0.3
G54C U60A	self-cleavage	0.272
C4U G56A	self-cleavage	0.161
C37A C38A	self-cleavage	0.144
A47C U53C	self-cleavage	0.192
U14C A26U	self-cleavage	0.418
G32C U53A	self-cleavage	0.185
A41C A64G	self-cleavage	0.173
C6G G15C	self-cleavage	0.545
G56U U70A	self-cleavage	0.145
G40U U58A	self-cleavage	0.155
C6U U58G	self-cleavage	0.663
C6G C12A	self-cleavage	0.572
A30U G40C	self-cleavage	0.13
U8C C18A	self-cleavage	0.787
G32A A43C	self-cleavage	0.0569
G29C U62G	self-cleavage	0.18
C4U G21C	self-cleavage	0.328
C4A A24C	self-cleavage	0.137
C18A A64C	self-cleavage	0.19
G1C A45U	self-cleavage	0.217
A47U A71U	self-cleavage	0.234
U33C G68C	self-cleavage	0.0535
G27C A30U	self-cleavage	0.255
U9A U63A	self-cleavage	0.212
U5G G51U	self-cleavage	0.534
G21A G54U	self-cleavage	0.372
G13U C38G	self-cleavage	0.136
U8A A26C	self-cleavage	0.334
U9C A11C	self-cleavage	0.592
U20A A44U	self-cleavage	0.177
A26C G32C	self-cleavage	0.175
U7A A64C	self-cleavage	0.194
A35C G54A	self-cleavage	0.483
C12G A59U	self-cleavage	0.134
C3U U52C	self-cleavage	0.611
C18G A36U	self-cleavage	0.728
C10U U55A	self-cleavage	0.213
C3U G27A	self-cleavage	0.187
G40C C48A	self-cleavage	0.128
U58G U60A	self-cleavage	0.714
C3G A31C	self-cleavage	0.0694
U2C C16U	self-cleavage	0.163
